The reported measurements were obtained from patent US20110217265A1.

test system: Huh7.5 cells; assay: Alamar Blue cell viability assay; assay type: cell-based, human; conditions: 5 μM
Recorded Cell Viability (%), alamar blue values for a group of molecules are listed next.
Express the result in % but write the number alone.

Solved cases (10 shown):
Cc1cc(NC(=O)c2nc(Cl)c(N(C)CC(C)C)nc2N)cnc1Cl [ID 291, bis(2,2,2-trifluoroacetate)] = 79
Cc1ccncc1NC(=O)c1nc(Cl)c(NCC(C)C)nc1N [ID 464, 2,2,2-trifluoroacetate] = 95
CC(C)CN(C)c1nc(N)c(C(=O)NCc2ccccc2)nc1Cl [ID 292, 2,2,2-trifluoroacetate] = 80
COC(=O)c1cccc(NC(=O)c2nc(Cl)c(N(C)CC(C)C)nc2N)c1.O=C(O)C(F)(F)F [ID 343] = 98
Cc1ccncc1NC(=O)c1cnc(N(C)C(C)C)cn1 [ID 459, 2,2,2-trifluoroacetate] = 64
CC(C)CN(C)c1nc(N)c(C(=O)NC2CCCNC2)nc1Cl.O=C(O)C(F)(F)F (centres unmarked) [ID 312] = 76
Cc1ccncc1NC(=O)c1nc(Cl)c(N2CCCC2)nc1N [ID 420, 2,2,2-trifluoroacetate] = 73
Cc1ccncc1NC(=O)c1nc(Cl)c(N2CCCCC2)nc1N [ID 415, 2,2,2-trifluoroacetate] = 71
CC(C)CN(C)c1nc(N)c(C(=O)Nc2ccncc2)nc1Cl.Cl [ID 203] = 92
CC(C)CN(C)c1nc(N)c(C(=O)NC2CCNCC2)nc1Cl.O=C(O)C(F)(F)F [ID 319] = 87

Please report the recorded Cell Viability (%), alamar blue for CCN(CC)c1nc(N)c(C(=O)Nc2cnccc2C)nc1Cl [ID 460, 2,2,2-trifluoroacetate] .
85

Form field: reported Cell Viability (%), alamar blue of CC(C)CN(C)c1nc(N)c(C(=O)Nc2ccon2)nc1Cl.Cl [ID 200]
96

So what's the measured Cell Viability (%), alamar blue for this one? CCN(C)c1nc(N)c(C(=O)Nc2cnccc2C)nc1Cl [ID 469, 2,2,2-trifluoroacetate]
75

Requested field: Cell Viability (%), alamar blue. Item: Cc1ccncc1NC(=O)c1nc(Cl)c(N2CCOCC2)nc1N [ID 419, 2,2,2-trifluoroacetate]
95

---

// values below are pIC50; system is hERG (Homo sapiens)
Sequence (Q12809 whole entry): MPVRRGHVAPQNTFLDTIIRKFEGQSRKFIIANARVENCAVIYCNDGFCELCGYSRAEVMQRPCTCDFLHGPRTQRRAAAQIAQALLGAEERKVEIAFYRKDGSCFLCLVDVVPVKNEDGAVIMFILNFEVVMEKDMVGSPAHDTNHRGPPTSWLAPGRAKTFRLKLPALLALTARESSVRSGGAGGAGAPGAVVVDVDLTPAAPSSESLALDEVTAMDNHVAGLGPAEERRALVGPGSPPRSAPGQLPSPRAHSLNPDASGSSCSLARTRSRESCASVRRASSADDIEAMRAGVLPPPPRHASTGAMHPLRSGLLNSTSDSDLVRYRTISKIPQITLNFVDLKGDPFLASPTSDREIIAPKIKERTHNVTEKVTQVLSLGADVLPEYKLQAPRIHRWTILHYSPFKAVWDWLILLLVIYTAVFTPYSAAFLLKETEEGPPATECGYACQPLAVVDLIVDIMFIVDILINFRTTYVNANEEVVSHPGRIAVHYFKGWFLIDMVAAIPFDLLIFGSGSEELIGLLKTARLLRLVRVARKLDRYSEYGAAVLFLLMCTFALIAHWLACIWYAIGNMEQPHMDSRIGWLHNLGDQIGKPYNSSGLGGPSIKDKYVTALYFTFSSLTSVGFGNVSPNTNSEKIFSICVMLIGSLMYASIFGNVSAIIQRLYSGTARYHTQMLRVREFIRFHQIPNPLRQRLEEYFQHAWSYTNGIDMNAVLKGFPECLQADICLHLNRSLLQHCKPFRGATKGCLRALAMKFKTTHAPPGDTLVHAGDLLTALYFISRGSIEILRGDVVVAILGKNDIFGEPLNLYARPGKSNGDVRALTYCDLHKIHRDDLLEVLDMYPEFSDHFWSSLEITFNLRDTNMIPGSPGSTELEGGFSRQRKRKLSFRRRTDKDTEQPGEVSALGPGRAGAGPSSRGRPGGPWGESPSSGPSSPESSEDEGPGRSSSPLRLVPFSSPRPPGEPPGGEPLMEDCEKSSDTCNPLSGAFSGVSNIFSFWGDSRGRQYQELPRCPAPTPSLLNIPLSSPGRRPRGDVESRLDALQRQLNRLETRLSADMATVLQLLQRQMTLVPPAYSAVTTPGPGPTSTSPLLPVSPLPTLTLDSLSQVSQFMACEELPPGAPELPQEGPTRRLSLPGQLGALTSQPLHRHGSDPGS
Quick note: pIC50 means taking -log10 of the concentration in moles per liter.

CC(C)CN(C)c1nc(N)c(C(=O)Nc2cccnc2)nc1Cl.Cl [ID 202, hydrochloride] = 5.82

Then there is this compound:
GET /values?readout=pIC50&system=hERG (Homo sapiens)&item= CC(C)CN(C)c1nc(N)c(C(=O)NC2CCCNC2)nc1Cl.O=C(O)C(F)(F)F (stereo not shown) [ID 312, 2,2,2-trifluoroacetate]
5.40

---

tested on: Huh7.5 cells; experiment: Alamar Blue cell viability assay; type: cell-based, human; conditions: 10 μM
QUANTITY KIND: Cell Viability (%), alamar blue
// units = %; emit number, no label

CC(C)CN(C)c1nc(N)c(C(=O)NCc2ccccc2)nc1Cl [ID 292, 2,2,2-trifluoroacetate] = 62
Cc1ccncc1NC(=O)c1nc(Cl)c(N(C)Cc2ccccc2)nc1N [ID 424, 2,2,2-trifluoroacetate] = 78
CC(C)CN(C)c1nc(N)c(C(=O)NCc2ccsc2)nc1Cl.Cl = 90
CC(C)CN(C)c1nc(N)c(C(=O)NCC2CCCCC2)nc1Cl.O=C(O)C(F)(F)F = 59
Cc1ccncc1NC(=O)c1cnc(N(C)C(C)C)cn1 [ID 459, 2,2,2-trifluoroacetate] = 65

Please look up its Cell Viability (%), alamar blue: Cc1ccncc1NC(=O)c1nc(Cl)c(N(C)c2ccccc2)nc1N [ID 465, 2,2,2-trifluoroacetate]
78

So what's the measured Cell Viability (%), alamar blue for this one? Cc1cncc(NC(=O)c2nc(Cl)c(N(C)CC(C)C)nc2N)c1 [ID 296, bis(2,2,2-trifluoroacetate)]
76

Look at this compound and give its reported Cell Viability (%), alamar blue. Cc1ccncc1NC(=O)c1nc(Cl)c(NCC(C)C)nc1N [ID 464, 2,2,2-trifluoroacetate]
85

Name the recorded Cell Viability (%), alamar blue for Cc1ccncc1NC(=O)c1nc(Cl)c(N2CCCCC2)nc1N [ID 415, 2,2,2-trifluoroacetate] .
65

Requested read-out: Cell Viability (%), alamar blue. Entry: CC(C)CN(C)c1nc(N)c(C(=O)NCc2ccccn2)nc1Cl.Cl
99

Fill in the blank: the reported Cell Viability (%), alamar blue of Cc1cc(NC(=O)c2nc(Cl)c(N(C)CC(C)C)nc2N)cnc1Cl [ID 291, bis(2,2,2-trifluoroacetate)] is ____.
53

GET /values?readout=Cell Viability (%), alamar blue&item= CC(C)CN(C)c1nc(N)c(C(=O)NCc2cccs2)nc1Cl [ID 150, 2,2,2-trifluoroacetate]
77

Look up Cell Viability (%), alamar blue for this compound: CC(C)CN(C)c1nc(N)c(C(=O)NCc2ccncc2)nc1Cl.O=C(O)C(F)(F)F
56

I am curious: what Cell Viability (%), alamar blue value has been reported for CC(C)CN(C)c1nc(N)c(C(=O)Nc2ccccn2)nc1Cl.Cl ?
92

---

Measured Cell Viability (%), alamar blue, listed per entry for reference.
tested on: Huh7.5 cells; assay: Alamar Blue cell viability assay; format: cell-based, human; details: 10 μM
Kindly answer with a numeric value in %, unit omitted.

Record excerpt, results attached:
Cc1cc(NC(=O)c2nc(Cl)c(N(C)CC(C)C)nc2N)no1.Cl = 78
CC(C)CN(C)c1nc(N)c(C(=O)NC2CCCNC2)nc1Cl.O=C(O)C(F)(F)F (centres unmarked) = 53
CCN(CC)c1nc(N)c(C(=O)Nc2cnccc2C)nc1Cl [ID 460, 2,2,2-trifluoroacetate] = 73
CC(C)CN(C)c1nc(N)c(C(=O)Nc2ccncc2)nc1Cl.Cl = 90

Pending compound:
For the compound shown here, CCN(C)c1nc(N)c(C(=O)Nc2cnccc2C)nc1Cl [ID 469, 2,2,2-trifluoroacetate] , give the reported Cell Viability (%), alamar blue.
71

---

System: Huh7.5 cells
Assay: Alamar Blue cell viability assay
Format: cell-based, human
Conditions: 5 μM
Experimental: Antiviral Assays of Compounds. Subconfluent Huh7.5 cells were trypsinized and collected by centrifugation at 700 g for 5 min. […] Viral RNA replication was determined using Renilla (FL-J6/JFH-5′C19Rluc2AUbi) or firefly (Bart791-luc) luciferase assays, according to the manufacturer's (Promega) directions. The same samples subjected to the viability assay described below were analyzed in this assay. […] Luminescence was measured over 10 seconds with a 2-second delay using a Berthold LB 96 V luminometer. […]
Assign Met whenever Cell Viability (%), alamar blue does not fall below 90%; assign Not met whenever it does.

Answered cases to consult:
CC(C)CN(C)c1nc(N)c(C(=O)Nc2ccccn2)nc1Cl.Cl = Met
CC(C)CN(C)c1nc(N)c(C(=O)NCc2ccncc2)nc1Cl.O=C(O)C(F)(F)F = Not met
CC(C)CN(C)c1nc(N)c(C(=O)NCC2CCCCC2)nc1Cl.O=C(O)C(F)(F)F = Not met
Cc1ccncc1NC(=O)c1cnc(N(C)CC(C)C)c(Cl)n1 [ID 473, 2,2,2-trifluoroacetate] = Met
Cc1ccncc1NC(=O)c1nc(Cl)c(N(C)CC(C)C)nc1N.Cl = Not met

Could you tell me if the measured Cell Viability (%), alamar blue of Cc1cc(F)ncc1NC(=O)c1nc(Cl)c(N(C)CC(C)C)nc1N [ID 297, bis(2,2,2-trifluoroacetate)] reaches 90% or more?
Met

Reported Cell Viability (%), alamar blue at or above 90%? COc1cc(C)c(NC(=O)c2nc(Cl)c(N(C)CC(C)C)nc2N)cn1 [ID 294, bis(2,2,2-trifluoroacetate)]
Met

Dear colleague, could you confirm whether CC(C)CN(C)c1nc(N)c(C(=O)NCc2nccs2)nc1Cl.Cl has Cell Viability (%), alamar blue at or above 90%?
Met

---

system: Huh7.5 cells; assay: Alamar Blue cell viability assay; assay type: cell-based, human; details: 5 μM
QUANTITY KIND: Cell Viability (%), alamar blue
State the answer as a number, implicitly in %.

Quick check: Cell Viability (%), alamar blue on Huh7.5 cells, item Cc1cncc(NC(=O)c2nc(Cl)c(N(C)CC(C)C)nc2N)c1 [ID 296, bis(2,2,2-trifluoroacetate)] ?
100

Item: CC(C)CN(C)c1nc(N)c(C(=O)NCc2ccsc2)nc1Cl.Cl Test system: Huh7.5 cells Read-out: Cell Viability (%), alamar blue Value: ?
99

Any idea what Cell Viability (%), alamar blue came out for Cc1cc(Cl)ncc1NC(=O)c1nc(Cl)c(N(C)CC(C)C)nc1N [ID 293, bis(2,2,2-trifluoroacetate)] on Huh7.5 cells?
71

Can you look up Cell Viability (%), alamar blue on Huh7.5 cells for CC(C)CN(C)c1nc(N)c(C(=O)NCc2cccnc2)nc1Cl.O=C(O)C(F)(F)F ?
77
